B1: RAB11A (parent)
chain: AVPTDEARAFAEKNGLSFIETSAL

variants of: B1; assay: protein stability index of a GFP-peptide fusion (GPS, HEK-293T) (PSI 1-6); higher = more stable; conditions: c terminus: a fixed tail appended;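 note: lentivirally expressed fusions sorted by FACS into six bins by GFP to DsRed ratio, PSI derived from sequencing read proportions per bin multiplied by bin number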
Hi, to clarify the labels: class 1 covers protein stability index from 2 upward, class 0 covers anything below 2.

## Task Test whether the variant `E20Y` records protein stability index of 2 or higher.
## Result class 1

## Task Can you handle `E20M` next?
## Result class 0

## Task Another variant to check: `V2A`
## Result class 1

## Task Same again, this time with `A7L`
## Result class 1

## Task Follow-up item: `N14H`
## Result class 1

## Task Next record, please: `I19E`
## Result class 1

## Task And then `I19F` , what is it?
## Result class 1

## Task `F18C` , same question.
## Result class 1

## Task Same again, this time with `T4W`
## Result class 0
